# Measured On: human Cav2.2 (Homo sapiens)
# Protocol Summary: Assessment of calcium channel activity using FLIPR (Ca2+ influx in IMR32 cells)
# Type: cell-based
# Stated Conditions: 3 minute pre-incubation with compound (*), 2 μM nifedipine, depolarized with 80 mM KCl
# log10 of IC50 values compiled below
// units: µM (pre-log); metric: IC50; scale: log10

Lookup: Quick check: log10 of IC50 of O=C(N[C@H]1CC[C@@H]2CN(Cc3ccccc3)C[C@@H]21)C1(c2ccccc2)CC1 ?
Found: 1.02

Lookup: Quick check: log10 of IC50 of CCC(CC)C(C(=O)N[C@H]1CC[C@@H]2CN(Cc3ccccc3)C[C@@H]21)c1ccccc1 (stereo partly shown) ?
Found: 0.23

* * *

# Measured On: UniProt:Q00975
# Protocol Summary: Assessment of calcium channel activity using FLIPR (Ca2+ influx in IMR32 cells)
# Format: cell-based
# Stated Conditions: 60 minute pre-incubation with compound, 2 μM nifedipine, depolarized with 80 mM KCl
# pIC50 values compiled below
Friendly reminder that pIC50 comes from taking -log10 of the concentration in mol/L.

// solved cases for pIC50 follow
O=C(N[C@H]1CC[C@H]2CN(Cc3cccc(C(F)(F)F)c3)C[C@H]21)C(O)(C1CCCCC1)C1CCCCC1 [Example 152]	6.10
CC(C)(C)C[C@H](NC1CCC1)C(=O)N[C@H]1CC[C@@H]2CN(S(=O)(=O)c3ccc(C(F)(F)F)cc3)C[C@@H]21 [Example 504]	6.04
CCCCN[C@@H](CC(C)(C)C)C(=O)N[C@H]1CC[C@@H]2CN(S(=O)(=O)c3ccc(C(F)(F)F)cc3)C[C@@H]21 [Example 476]	5.88

With those in mind, consider the next compound.
Lookup: Quick check: pIC50 of CC(C)N[C@@H](CC(C)(C)C)C(=O)N[C@H]1CC[C@@H]2CN(S(=O)(=O)c3cc(C(F)(F)F)ccc3Cl)C[C@@H]21 [Example 486] ?
Found: 5.92

* * *

# Measured On: UniProtKB Q00975
# Protocol Summary: Assessment of calcium channel activity using FLIPR (Ca2+ influx in IMR32 cells)
# Assay type: cell-based
# Stated Conditions: 60 minute pre-incubation with compound, 2 μM nifedipine, depolarized with 80 mM KCl
# pIC50 values compiled below
Friendly reminder that pIC50 comes from taking -log10 of the concentration in mol/L.

// solved cases for pIC50 follow
N[C@@H](Cc1ccccc1)C(=O)N[C@H]1CC[C@@H]2CN(S(=O)(=O)c3cccc(C(F)(F)F)c3)C[C@@H]21	5.73
CCC[C@H](NC)C(=O)N[C@H]1CC[C@@H]2CN(S(=O)(=O)c3ccc(Br)c(C(F)(F)F)c3)C[C@@H]21	5.59
CN(C(=O)OC(C)(C)C)[C@@H](CC(C)(C)C)C(=O)N[C@@H]1CC[C@H]2CN(S(=O)(=O)c3ccc(C(F)(F)F)cc3)C[C@H]21	5.95
O=C(N[C@@H]1CC[C@H]2CN(S(=O)(=O)c3cccc(C(F)(F)F)c3)C[C@H]21)[C@@H]1CCCCN1	5.49
O=C(N[C@H]1CC[C@@H]2CN(Cc3cccc(C(F)(F)F)c3)C[C@@H]21)C(C1CCCCC1)C1CCCCC1	6.10
CN[C@@H](CC(C)(C)C)C(=O)N[C@@H]1CC[C@H]2CN(S(=O)(=O)c3ccc(C(F)(F)F)cc3)C[C@H]21	5.94

Lookup: Quick check: pIC50 of CCC[C@@H](C(=O)N[C@H]1CC[C@@H]2CN(S(=O)(=O)c3ccc(F)c(Cl)c3)C[C@@H]21)N(C)C(=O)OC(C)(C)C ?
Found: 6.02

Lookup: Quick check: pIC50 of CC(C)(C)C[C@H](NC1CCCCC1)C(=O)N[C@H]1CC[C@@H]2CN(S(=O)(=O)c3ccc(C(F)(F)F)cc3)C[C@@H]21 ?
Found: 6.01

Lookup: Quick check: pIC50 of O=C(N[C@H]1CC[C@H]2CN(Cc3cccc(C(F)(F)F)c3)C[C@H]21)C(c1ccc(F)cc1)c1ccc(F)cc1 (relative stereo) ?
Found: 5.96

* * *

# Measured On: human Cav2.2 (Homo sapiens, UniProt Q00975)
# Sequence (Q00975 whole entry): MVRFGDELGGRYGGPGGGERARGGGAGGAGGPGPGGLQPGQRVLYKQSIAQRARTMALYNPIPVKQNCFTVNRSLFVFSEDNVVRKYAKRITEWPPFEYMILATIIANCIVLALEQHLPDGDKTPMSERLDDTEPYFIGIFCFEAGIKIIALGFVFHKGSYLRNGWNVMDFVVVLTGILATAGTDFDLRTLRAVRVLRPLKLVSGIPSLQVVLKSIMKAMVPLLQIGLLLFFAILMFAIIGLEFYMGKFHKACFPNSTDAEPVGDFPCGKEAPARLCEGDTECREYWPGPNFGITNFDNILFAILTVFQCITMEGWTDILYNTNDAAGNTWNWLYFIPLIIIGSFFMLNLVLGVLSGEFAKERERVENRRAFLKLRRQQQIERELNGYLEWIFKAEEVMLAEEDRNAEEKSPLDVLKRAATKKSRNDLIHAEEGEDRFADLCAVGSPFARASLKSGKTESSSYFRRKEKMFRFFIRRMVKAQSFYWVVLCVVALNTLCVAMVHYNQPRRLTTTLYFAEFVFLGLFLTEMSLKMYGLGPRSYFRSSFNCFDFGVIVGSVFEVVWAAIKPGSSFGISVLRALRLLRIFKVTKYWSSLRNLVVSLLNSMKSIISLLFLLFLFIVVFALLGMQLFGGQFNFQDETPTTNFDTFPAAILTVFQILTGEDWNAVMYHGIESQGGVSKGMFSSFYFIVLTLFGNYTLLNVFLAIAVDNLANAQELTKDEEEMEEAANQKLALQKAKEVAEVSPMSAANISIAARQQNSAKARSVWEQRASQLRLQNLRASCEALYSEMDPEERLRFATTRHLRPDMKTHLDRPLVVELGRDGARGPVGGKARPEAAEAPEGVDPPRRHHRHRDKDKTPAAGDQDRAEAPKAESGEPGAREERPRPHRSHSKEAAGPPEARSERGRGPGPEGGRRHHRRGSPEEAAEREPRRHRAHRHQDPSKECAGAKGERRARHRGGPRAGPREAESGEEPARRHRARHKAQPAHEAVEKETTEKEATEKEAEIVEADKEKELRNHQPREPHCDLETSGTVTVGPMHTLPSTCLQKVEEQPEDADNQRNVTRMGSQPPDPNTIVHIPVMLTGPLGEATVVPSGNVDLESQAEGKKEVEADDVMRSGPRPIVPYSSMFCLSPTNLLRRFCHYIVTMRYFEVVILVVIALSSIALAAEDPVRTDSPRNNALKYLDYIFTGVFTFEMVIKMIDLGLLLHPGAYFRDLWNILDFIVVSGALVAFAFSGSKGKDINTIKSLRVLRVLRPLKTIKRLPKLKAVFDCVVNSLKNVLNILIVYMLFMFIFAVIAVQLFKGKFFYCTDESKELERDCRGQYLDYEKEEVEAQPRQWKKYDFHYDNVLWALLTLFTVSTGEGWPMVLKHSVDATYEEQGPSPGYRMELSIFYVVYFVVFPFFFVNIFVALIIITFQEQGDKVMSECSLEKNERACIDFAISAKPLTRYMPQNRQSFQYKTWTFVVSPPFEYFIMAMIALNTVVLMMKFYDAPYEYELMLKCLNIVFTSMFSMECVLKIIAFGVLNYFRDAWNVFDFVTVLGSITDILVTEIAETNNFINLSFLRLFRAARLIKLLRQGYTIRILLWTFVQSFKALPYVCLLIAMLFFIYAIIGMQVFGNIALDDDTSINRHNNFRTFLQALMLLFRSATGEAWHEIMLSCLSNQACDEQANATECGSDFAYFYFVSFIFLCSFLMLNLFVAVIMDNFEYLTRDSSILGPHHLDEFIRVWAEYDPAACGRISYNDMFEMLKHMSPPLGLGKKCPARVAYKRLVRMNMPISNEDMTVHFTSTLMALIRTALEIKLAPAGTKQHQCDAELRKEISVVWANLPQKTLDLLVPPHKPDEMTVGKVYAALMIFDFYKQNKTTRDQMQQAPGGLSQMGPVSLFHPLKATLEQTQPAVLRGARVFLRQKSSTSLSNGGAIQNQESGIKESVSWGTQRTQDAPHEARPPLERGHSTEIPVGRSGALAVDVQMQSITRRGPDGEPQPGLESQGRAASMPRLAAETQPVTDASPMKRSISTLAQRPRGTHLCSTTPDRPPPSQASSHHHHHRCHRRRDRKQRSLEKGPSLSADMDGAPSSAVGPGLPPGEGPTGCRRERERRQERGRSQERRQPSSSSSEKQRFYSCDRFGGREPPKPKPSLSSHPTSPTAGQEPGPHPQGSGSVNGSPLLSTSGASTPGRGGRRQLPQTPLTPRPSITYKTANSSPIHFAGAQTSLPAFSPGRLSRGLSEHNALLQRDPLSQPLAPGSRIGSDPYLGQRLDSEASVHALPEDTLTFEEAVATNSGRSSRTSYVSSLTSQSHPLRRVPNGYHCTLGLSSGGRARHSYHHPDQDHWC
# Sequence (P54289 25-946 partner limits assumed): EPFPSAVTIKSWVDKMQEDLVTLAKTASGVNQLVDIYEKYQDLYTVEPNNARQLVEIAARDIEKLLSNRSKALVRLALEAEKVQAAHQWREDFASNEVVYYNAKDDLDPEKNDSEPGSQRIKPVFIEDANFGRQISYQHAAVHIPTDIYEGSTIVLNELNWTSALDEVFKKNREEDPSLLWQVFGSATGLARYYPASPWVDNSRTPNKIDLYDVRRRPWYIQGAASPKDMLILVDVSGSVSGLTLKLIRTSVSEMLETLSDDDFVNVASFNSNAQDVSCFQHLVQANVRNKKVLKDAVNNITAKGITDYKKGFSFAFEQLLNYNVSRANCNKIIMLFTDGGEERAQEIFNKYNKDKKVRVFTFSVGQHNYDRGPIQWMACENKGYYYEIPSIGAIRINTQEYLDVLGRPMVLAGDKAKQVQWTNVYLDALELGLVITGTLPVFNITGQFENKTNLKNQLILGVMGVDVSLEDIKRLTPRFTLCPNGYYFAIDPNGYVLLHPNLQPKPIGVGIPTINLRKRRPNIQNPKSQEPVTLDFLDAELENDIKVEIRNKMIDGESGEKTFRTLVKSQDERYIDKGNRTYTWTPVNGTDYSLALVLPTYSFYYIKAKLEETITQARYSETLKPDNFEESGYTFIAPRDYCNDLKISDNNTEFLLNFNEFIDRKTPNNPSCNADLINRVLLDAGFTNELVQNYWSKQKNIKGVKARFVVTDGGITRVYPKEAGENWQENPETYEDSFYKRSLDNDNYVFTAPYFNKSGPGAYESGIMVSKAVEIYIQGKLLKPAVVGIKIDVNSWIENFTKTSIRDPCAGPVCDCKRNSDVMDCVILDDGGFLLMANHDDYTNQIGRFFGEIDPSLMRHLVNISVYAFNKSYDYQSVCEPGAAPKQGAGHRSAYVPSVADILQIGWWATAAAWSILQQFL
# Sequence (P54289 947-1103 partner limits assumed): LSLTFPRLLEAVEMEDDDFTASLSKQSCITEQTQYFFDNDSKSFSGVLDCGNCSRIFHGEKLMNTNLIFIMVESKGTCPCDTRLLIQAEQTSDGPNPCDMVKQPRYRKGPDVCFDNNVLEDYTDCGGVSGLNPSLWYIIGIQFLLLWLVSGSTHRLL
# Sequence (P54284 whole entry partner): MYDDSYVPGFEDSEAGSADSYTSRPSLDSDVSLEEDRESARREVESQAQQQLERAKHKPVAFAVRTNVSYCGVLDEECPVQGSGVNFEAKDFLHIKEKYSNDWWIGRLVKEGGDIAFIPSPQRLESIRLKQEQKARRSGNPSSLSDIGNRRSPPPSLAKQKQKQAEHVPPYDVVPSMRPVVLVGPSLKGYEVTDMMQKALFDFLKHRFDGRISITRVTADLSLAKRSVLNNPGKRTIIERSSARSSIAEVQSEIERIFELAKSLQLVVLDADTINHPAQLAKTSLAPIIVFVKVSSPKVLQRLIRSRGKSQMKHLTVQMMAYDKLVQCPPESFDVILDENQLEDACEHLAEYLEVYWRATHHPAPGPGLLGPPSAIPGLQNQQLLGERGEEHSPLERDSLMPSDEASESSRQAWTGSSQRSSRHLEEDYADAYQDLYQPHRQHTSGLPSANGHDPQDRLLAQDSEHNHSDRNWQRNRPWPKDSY
# Protocol Summary: Assessment of calcium channel activity using FLIPR (Ca2+ influx in IMR32 cells)
# Format: cell-based
# Stated Conditions: 60 minute pre-incubation with compound, 2 μM nifedipine, depolarized with 80 mM KCl
So basically: is IC50 under 2000 nM? Then True. Not under? Then False.

O=C(N[C@H]1CC[C@H]2CN(S(=O)(=O)Cc3cccc(C(F)(F)F)c3)C[C@H]21)C(C1CCCCC1)C1CCCCC1 [Example 208]	False
CC(C)(C)C[C@H](N)C(=O)N[C@H]1CC[C@@H]2CN(S(=O)(=O)c3ccc(F)cc3)C[C@@H]21 [Example 453]	False
CC[C@H](C)[C@@H](C(=O)N[C@H]1CC[C@@H]2CN(Cc3ccccc3)C[C@@H]21)N(C)C(=O)OC(C)(C)C [Example 224]	False
CCN[C@@H](CC(C)(C)C)C(=O)N[C@H]1CC[C@@H]2CN(S(=O)(=O)c3ccc(C(F)(F)F)cc3)C[C@@H]21 [Example 477]	True

Lookup: # strict comparison: is reported IC50 < 2000 nM? input = O=C(N[C@H]1CC[C@@H]2CN(Cc3ccccc3)C[C@@H]21)C(c1ccc(F)cc1)c1ccc(F)cc1 [Example 228]
Found: False

Lookup: # strict comparison: is reported IC50 < 2000 nM? input = CC(=O)N(C)[C@@H](CC(C)C)C(=O)N[C@H]1CC[C@H]2CN(Cc3cccc(C(F)(F)F)c3)C[C@H]21 [Example 175]
Found: True

Lookup: # strict comparison: is reported IC50 < 2000 nM? input = CC(C)(C)OC(=O)N[C@H](C(=O)N[C@@H]1CC[C@H]2CN(S(=O)(=O)c3ccc(C(F)(F)F)cc3)C[C@H]21)C(C)(C)C [Example 342]
Found: False

Lookup: # strict comparison: is reported IC50 < 2000 nM? input = CN[C@@H](CC(C)C)C(=O)N[C@H]1CC[C@@H]2CN(S(=O)(=O)c3cccc(C(F)(F)F)c3)C[C@@H]21 [Example 384]
Found: True

Lookup: # strict comparison: is reported IC50 < 2000 nM? input = CC(C)C[C@@H](C(=O)N[C@@H]1CC[C@H]2CN(C(=O)c3cccc(C(F)(F)F)c3)C[C@H]21)N1CCCC1 [Example 345]
Found: False

* * *

# IC50 values compiled below
# Measured On: human Cav2.2 (Homo sapiens)
# Protocol Summary: Assessment of calcium channel activity using FLIPR (Ca2+ influx in IMR32 cells)
# Format: cell-based
# Stated Conditions: 3 minute pre-incubation with compound (*), 2 μM nifedipine, depolarized with 80 mM KCl
Kindly answer with a numeric value in µM, unit omitted.

// solved cases for IC50 follow
CC(C)C(C(=O)N[C@H]1CC[C@@H]2CN(Cc3ccncc3)C[C@@H]21)c1ccccc1 (some centres unmarked) [Example 103]	31
O=C(N[C@@H]1CC[C@H]2CN(Cc3ccccc3)C[C@H]21)C(Cc1ccccc1)c1ccccc1 (some centres unmarked) [Example 25]	3.7
CCCC(CCC)C(=O)N[C@@H]1CC[C@H]2CN(Cc3ccccc3)C[C@H]21 [Example 21]	10.1
O=C(N[C@H]1CC[C@H]2CN(Cc3ccccc3)C[C@H]21)C1(c2ccccc2)CCCC1 (relative stereo) [Example 1]	3.5
COc1ccc(CN2C[C@H]3CC[C@H](NC(=O)C(c4ccccc4)C(C)C)[C@H]3C2)cc1 (some centres unmarked) [Example 96]	2.4
O=C(N[C@H]1CC[C@@H]2CN(Cc3ccccc3)C[C@@H]21)C1(c2ccccc2)CCCCC1 [Example 46]	3.1
Cc1ccccc1CCCN1C[C@H]2CC[C@H](NC(=O)C(c3ccccc3)C(C)C)[C@H]2C1 (some centres unmarked) [Example 108]	11.3
CC(C)C(C(=O)N[C@H]1CC[C@@H]2CN(Cc3cccc(C#N)c3)C[C@@H]21)c1ccccc1 (some centres unmarked) [Example 97]	5.3
CC(C)C(C(=O)N[C@@H]1CC[C@@H]2CN(Cc3ccccc3)C[C@@H]21)c1ccccc1 (relative stereo) [Example 5]	3.8
CC(C)C(C(=O)N[C@H]1CC[C@@H]2CN(CCCc3cccc(F)c3)C[C@@H]21)c1ccccc1 (some centres unmarked) [Example 112]	2.8

Lookup: Quick check: IC50 of O=C(N[C@H]1CC[C@@H]2CN(Cc3ccccc3)C[C@@H]21)C(Cc1ccccc1)c1ccccc1 (some centres unmarked) [Example 50] ?
Found: 5

Lookup: Quick check: IC50 of CC(C)C(C(=O)N[C@H]1CC[C@@H]2CN(CCCc3cccc(C(F)(F)F)c3)C[C@@H]21)c1ccccc1 (some centres unmarked) [Example 111] ?
Found: 2.2

Lookup: Quick check: IC50 of O=C(N[C@@H]1CC[C@H]2CNC[C@H]21)C(C1CCCCC1)C1CCCCC1 [Example 74] ?
Found: 11.2

Lookup: Quick check: IC50 of O=C(N[C@@H]1CC[C@H]2CN(Cc3ccccc3)C[C@H]21)C1(c2ccccc2)CC1 [Example 28] ?
Found: 13.9

Recorded values, source patent US8129417B2.
